Target: hMAO-A (Homo sapiens)
Construct: host or cells: insect cells (BTI-TN-5B14), recombinant baculovirus
Sequence (P21397 1-527): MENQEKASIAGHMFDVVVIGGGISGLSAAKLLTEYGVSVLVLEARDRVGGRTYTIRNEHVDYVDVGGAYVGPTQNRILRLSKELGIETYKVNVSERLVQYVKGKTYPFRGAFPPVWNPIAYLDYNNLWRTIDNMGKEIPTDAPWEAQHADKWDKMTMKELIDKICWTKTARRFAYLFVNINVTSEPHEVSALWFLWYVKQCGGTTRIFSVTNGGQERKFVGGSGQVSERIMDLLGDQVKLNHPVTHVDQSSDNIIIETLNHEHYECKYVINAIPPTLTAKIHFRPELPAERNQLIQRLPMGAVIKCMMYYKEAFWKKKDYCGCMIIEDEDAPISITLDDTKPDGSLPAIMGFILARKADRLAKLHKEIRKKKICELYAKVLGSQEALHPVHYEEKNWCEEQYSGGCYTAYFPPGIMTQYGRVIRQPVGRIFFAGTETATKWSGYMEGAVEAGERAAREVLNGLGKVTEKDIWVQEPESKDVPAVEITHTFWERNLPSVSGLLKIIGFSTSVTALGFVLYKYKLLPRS
Assay: hMAO-A inhibition, Amplex Red fluorometric assay;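 note: recombinant human MAO-A and MAO-B from baculovirus-infected insect cell microsomes, H2O2 formation detected fluorometrically via Amplex Red with horseradish peroxidase, background from enzyme-free wells subtracted, distilled water negative control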
Type: biochemical
Details: IC50 (MAO-A)/IC50 (MAO-B)
Experimental endpoint: Selectivity index

Solved cases (5 shown):
>  <Compound>
O=C(/C=C/c1ccc(O)c(O)c1)Nc1ccc(Cl)cc1[N+](=O)[O-]

>  <Target>
hMAO-A (Homo sapiens)

>  <Experimental endpoint>
Selectivity index

>  <Experimental value>
0.191

$$$$
>  <Compound>
O=C(O)/C=C/c1ccc(O)c(O)c1 [Caffeic acid, reference compound]

>  <Target>
hMAO-A (Homo sapiens)

>  <Experimental endpoint>
Selectivity index

>  <Experimental value>
0.512

$$$$
>  <Compound>
COc1cc(C=O)ccc1OC(=O)/C=C/c1ccc(O)c(O)c1

>  <Target>
hMAO-A (Homo sapiens)

>  <Experimental endpoint>
Selectivity index

>  <Experimental value>
1.252

$$$$
>  <Compound>
CC1CCC(C(C)C)C(OC(=O)/C=C/c2ccc(O)c(O)c2)C1 (stereo not shown)

>  <Target>
hMAO-A (Homo sapiens)

>  <Experimental endpoint>
Selectivity index

>  <Experimental value>
0.453

$$$$
>  <Compound>
C=CCc1ccc(OC(=O)/C=C/c2ccc(O)c(O)c2)c(OC)c1

>  <Target>
hMAO-A (Homo sapiens)

>  <Experimental endpoint>
Selectivity index

>  <Experimental value>
0.291

$$$$

[A] Cc1ccc(C(C)C)cc1OC(=O)/C=C/c1ccc(O)c(O)c1
[B] O=C(/C=C/c1ccc(O)c(O)c1)Oc1cccc(O)c1
[C] O=C(/C=C/c1ccc(O)c(O)c1)Oc1ccc2ccccc2c1
# sort list by recorded Selectivity index, greatest to least Put the labels in the requested order and write them down.
C, A, B
(C: 1.233, A: 0.724, B: 0.379)

Data provenance is paper PMC6768041.
